Reference for the values: PubChem BioAssay (NCI)

# Test system: SF-295 CNS
# method.notes: NCI tumour cell line growth inhibition, 48 h; in the data active means GI50 below about 0.43 µM; inactive means the rest
Field 'call' accepts active, inactive

C=CCC(N[C@H](CO)C(C)C)c1cn(C(=O)OCC)c2ccccc12 (stereo not given in full)
inactive
CCCN(Cc1ccc(F)cc1)c1ccc(CO)c(Cl)c1
inactive
COc1cccc(OC(=O)c2ccccc2Nc2ccnc(C(F)(F)F)c2)c1
inactive
CC[C@](C)(O)C(=O)O[C@H]1C(=O)O[C@@H]2C[C@H]3C(C)=CC(=O)[C@@H](O)[C@]3(C)[C@H]3[C@@]4(O)OC[C@]32[C@@H]1[C@@H](C)[C@H]4O
active

Query: // outcome(item) with item = CN(C)CCCNC(=O)c1cc(NC(=O)CCNS(=O)(=O)c2ccc3c(c2)C(=O)c2ccccc2C3=O)cn1C
Result: inactive
